# Species: Rattus norvegicus
# Protocol summary: DrugMatrix - Regimen: Daily Repeat
# Format: toxicity, organism-based, Sprague-Dawley
# Parameters: regimen Daily Repeat, gender Male, age 6-8 weeks
# Condition: in vivo, ip, 0 mg/kg, […], tissue Blood, route intraperitoneal, dose level Control, time 28 day, vehicle 100 % SALINE
Metric name: ABSOLUTE EOSINOPHIL (cells/µL)
Just the number in cells/µL, nothing appended.

- Substance: "CISPLATIN"
  Units: "cells/µL"
  Readout number: 110
- Substance: "CARBOPLATIN"
  Units: "cells/µL"
  Readout number: 110

Item: GOLD SODIUM THIOMALATE | ABSOLUTE EOSINOPHIL: 110

---

# Organism: Rattus norvegicus
# Protocol summary: DrugMatrix - Regimen: Daily Repeat
# Type: toxicity, organism-based, Sprague-Dawley
# Parameters: regimen Daily Repeat, gender Male, age 6-8 weeks
# Condition: in vivo, po, 10 mg/kg, 120 h, tissue Plasma, route oral GAVAGE, dose level Low, time 5 day, vehicle .5 % CMC
Metric name: CARBON DIOXIDE
Answer with the number, then the unit.

- Compound: "NS(=O)(=O)c1cc2c(cc1Cl)NCNS2(=O)=O [HYDROCHLOROTHIAZIDE]"
  Result: "25.33 mmol/L"
- Compound: "O=C1CN=C(c2ccccc2)c2cc([N+](=O)[O-])ccc2N1"
  Result: "26.67 mmol/L"
- Compound: "COc1c(C)c2c(c(O)c1C/C=C(\\C)CCC(=O)OCCN1CCOCC1)C(=O)OC2 [MYCOPHENOLATE MOFETIL]"
  Result: "31.33 mmol/L"

CARBON DIOXIDE measured on CC(=O)O[C@]1(C(C)=O)CC[C@H]2[C@@H]3C=C(Cl)C4=CC(=O)CC[C@]4(C)[C@H]3CC[C@@]21C [CHLORMADINONE ACETATE] = 25.67 mmol/L

---

# Species: Rattus norvegicus
# Protocol summary: DrugMatrix - Regimen: Daily Repeat
# Format: toxicity, organism-based, Sprague-Dawley
# Design: regimen Daily Repeat, gender Male, age 6-8 weeks
# Condition: in vivo, po, 2000 mg/kg, 72 h, tissue Blood, route oral GAVAGE, dose level High, time 3 day, vehicle .5 % CMC
Metric name: MONOCYTE

Recorded MONOCYTE, per entry:
- Compound: "NCC(=O)O"
  Result: "1.33%"
- Compound: "CC(=O)O[C@]1(C(C)=O)CC[C@H]2[C@@H]3C=C(Cl)C4=CC(=O)CC[C@]4(C)[C@H]3CC[C@@]21C [CHLORMADINONE ACETATE]"
  Result: "1.33%"
- Compound: "NCCCC[C@H](N[C@@H](CCc1ccccc1)C(=O)O)C(=O)N1CCC[C@H]1C(=O)O [LISINOPRIL ANHYDROUS]"
  Result: "1%"

Would you kindly look at the next entry?
Noted for CC(C)[C@H](N)C(=O)OCCOCn1cnc2c(=O)[nH]c(N)nc21 : its MONOCYTE reads 1%

---

# Species on record: Rattus norvegicus
# Protocol summary: DrugMatrix - Regimen: Daily Repeat
# Format: toxicity, organism-based, Sprague-Dawley
# Parameters: regimen Daily Repeat, gender Male, age 6-8 weeks
# Condition: in vivo, po, 10 mg/kg, 72 h, tissue Plasma, route oral GAVAGE, dose level Low, time 3 day, vehicle .5 % CMC
Metric name: CHOLESTEROL (mg/dL)
State just the number; it will be interpreted in mg/dL.

- Compound: "O=C1CN=C(c2ccccc2)c2cc([N+](=O)[O-])ccc2N1"
  CHOLESTEROL (mg/dL): 76.67
- Compound: "NS(=O)(=O)c1cc2c(cc1Cl)NCNS2(=O)=O [HYDROCHLOROTHIAZIDE]"
  CHOLESTEROL (mg/dL): 65.67
- Compound: "CC(=O)O[C@]1(C(C)=O)CC[C@H]2[C@@H]3C=C(Cl)C4=CC(=O)CC[C@]4(C)[C@H]3CC[C@@]21C [CHLORMADINONE ACETATE]"
  CHOLESTEROL (mg/dL): 81.67

Short answer for COc1c(C)c2c(c(O)c1C/C=C(\C)CCC(=O)OCCN1CCOCC1)C(=O)OC2 [MYCOPHENOLATE MOFETIL] : CHOLESTEROL was 70.67

---

# Organism: Rattus norvegicus
# Protocol summary: DrugMatrix - Regimen: Daily Repeat
# Assay type: toxicity, organism-based, Sprague-Dawley
# Parameters: regimen Daily Repeat, gender Male, age 6-8 weeks
# Condition: in vivo, po, 0 mg/kg, 72 h, tissue Plasma, route oral GAVAGE, dose level Control, time 3 day, […]
Metric name: ALANINE AMINOTRANSFERASE (u/L)
Return type: number; implicit unit u/L.

Recorded result, COc1ccc2c(c1)c(CC(=O)OCC(=O)O)c(C)n2C(=O)c1ccc(Cl)cc1 [ACEMETACIN] , ALANINE AMINOTRANSFERASE: 59.5

Short answer for CC(C)n1c(/C=C/C(O)CC(O)CC(=O)O)c(-c2ccc(F)cc2)c2ccccc21 (stereo not given) [FLUVASTATIN] : ALANINE AMINOTRANSFERASE was 76.67

---

Each record here notes measured HEMATOCRIT.
# Species: Rattus norvegicus
# Protocol summary: DrugMatrix - Regimen: Daily Repeat
# Type: toxicity, organism-based, Sprague-Dawley
# Set-up: regimen Daily Repeat, gender Male, age 6-8 weeks
# Condition: in vivo, po, 1500 mg/kg, 72 h, tissue Blood, route oral GAVAGE, dose level High, time 3 day, vehicle .5 % CMC

Here's what some known entries look like.
- Compound: "NS(=O)(=O)c1cc2c(cc1Cl)NCNS2(=O)=O [HYDROCHLOROTHIAZIDE]"
  HEMATOCRIT: "35.57%"
- Compound: "COC(=O)c1ccc(O)cc1"
  HEMATOCRIT: "33.07%"
- Compound: "O=C1CCc2cc(OCCCCc3nnnn3C3CCCCC3)ccc2N1"
  HEMATOCRIT: "45.23%"

Now turn to the next compound.
Note to self: HEMATOCRIT recorded for CCOC(=O)[C@H](CCc1ccccc1)N[C@@H](C)C(=O)N1[C@H](C(=O)O)C[C@@H]2CCC[C@@H]21 was 34.53%

---

# Species: Rattus norvegicus
# Protocol summary: DrugMatrix - Regimen: Daily Repeat
# Type: toxicity, organism-based, Sprague-Dawley
# Parameters: regimen Daily Repeat, gender Male, age 6-8 weeks
# Condition: in vivo, po, 0 mg/kg, 120 h, tissue Plasma, route oral GAVAGE, dose level Control, time 5 day, vehicle .5 % CMC
Kind request: treat 0.3 mg/dL as inclusive, so CREATININE at 0.3 mg/dL or higher is 1.0, anything lower is 0.0.

Previously resolved entries follow.
- Compound: "CN1CCC[C@@H]1CCO[C@](C)(c1ccccc1)c1ccc(Cl)cc1"
  Cat: 0.0
- Compound: "Brc1ccccc1"
  Cat: 0.0
- Compound: "O=C1CCc2cc(OCCCCc3nnnn3C3CCCCC3)ccc2N1"
  Cat: 1.0
- Compound: "CCC[C@@H]1C[C@@H](C(=O)N[C@@H]([C@H]2O[C@H](SC)[C@H](O)[C@@H](O)[C@H]2O)[C@@H](C)O)N(C)C1"
  Cat: 0.0

Here is another compound to look at.
Exercise: Does the compound CC1(C)[C@H]2CC[C@]1(C)C(=O)C2 [(-)-CAMPHOR] have recorded CREATININE that is 0.3 mg/dL or more?
Key: 1.0

---

# Species: Rattus norvegicus
# Protocol summary: DrugMatrix - Regimen: Daily Repeat
# Type: toxicity, organism-based, Sprague-Dawley
# Parameters: regimen Daily Repeat, gender Male, age 6-8 weeks
# Condition: in vivo, ip, 8 mg/kg, […], tissue Blood, route intraperitoneal, dose level High, time 14 day, vehicle 100 % SALINE
Metric name: ABSOLUTE LYMPHOCYTE (cells/µL)
Express your answer in cells/µL, writing the number without its unit.

ABSOLUTE LYMPHOCYTE measured on GOLD SODIUM THIOMALATE = 8830

---

# Species on record: Rattus norvegicus
# Protocol summary: DrugMatrix - Regimen: Daily Repeat
# Assay type: toxicity, organism-based, Sprague-Dawley
# Design: regimen Daily Repeat, gender Male, age 6-8 weeks
# Condition: in vivo, po, 1500 mg/kg, 72 h, tissue Plasma, route oral GAVAGE, dose level High, time 3 day, vehicle .5 % CMC
# CHOLESTEROL listing for each entry below
Give the value, in units of mg/dL, as a plain number.

Entry under test: O=C1CCc2cc(OCCCCc3nnnn3C3CCCCC3)ccc2N1 . Its CHOLESTEROL was 65.33

---

# Species: Rattus norvegicus
# Protocol summary: DrugMatrix - Regimen: Daily Repeat
# Format: toxicity, organism-based, Sprague-Dawley
# Design: regimen Daily Repeat, gender Male, age 6-8 weeks
# Condition: in vivo, po, 0 mg/kg, 120 h, tissue Blood, route oral GAVAGE, dose level Control, time 5 day, vehicle 100 % WATER
Metric name: ABSOLUTE SEGMENTED NEUTROPHIL (CELLS/uL)
Express the result in CELLS/uL but write the number alone.

Worked cases, answers included:
- Compound: "NNC(=O)c1ccncc1 [ISONIAZID]"
  Metric name: "ABSOLUTE SEGMENTED NEUTROPHIL"
  Units: "CELLS/uL"
  Readout number: 1313.67
- Compound: "CC1(C)S[C@@H]2[C@H](NC(=O)[C@H](N)c3ccc(O)cc3)C(=O)N2[C@H]1C(=O)O [AMOXICILLIN]"
  Metric name: "ABSOLUTE SEGMENTED NEUTROPHIL"
  Units: "CELLS/uL"
  Readout number: 666.5
- Compound: "CC1COc2c(N3CCN(C)CC3)c(F)cc3c(=O)c(C(=O)O)cn1c23 (centres undefined) [OFLOXACIN]"
  Metric name: "ABSOLUTE SEGMENTED NEUTROPHIL"
  Units: "CELLS/uL"
  Readout number: 1187.83
- Compound: "C[C@]12Cc3c[nH]nc3C[C@@H]1CC[C@@H]1[C@@H]2CC[C@@]2(C)[C@H]1CC[C@]2(C)O [STANOZOLOL]"
  Metric name: "ABSOLUTE SEGMENTED NEUTROPHIL"
  Units: "CELLS/uL"
  Readout number: 725.5
- Compound: "Fc1ccc([C@@H]2CCNC[C@H]2COc2ccc3c(c2)OCO3)cc1 [PAROXETINE]"
  Metric name: "ABSOLUTE SEGMENTED NEUTROPHIL"
  Units: "CELLS/uL"
  Readout number: 725.5
- Compound: "CNCCC=C1c2ccccc2CCc2ccccc21 [NORTRIPTYLINE]"
  Metric name: "ABSOLUTE SEGMENTED NEUTROPHIL"
  Units: "CELLS/uL"
  Readout number: 1581.67
- Compound: "O=C1NC(=O)C(c2ccccc2)(c2ccccc2)N1 [PHENYTOIN]"
  Metric name: "ABSOLUTE SEGMENTED NEUTROPHIL"
  Units: "CELLS/uL"
  Readout number: 1581.67
- Compound: "NC(=O)c1ncn([C@@H]2O[C@H](CO)[C@@H](O)[C@H]2O)n1 [RIBAVIRIN]"
  Metric name: "ABSOLUTE SEGMENTED NEUTROPHIL"
  Units: "CELLS/uL"
  Readout number: 968.5

Query compound follows.
ABSOLUTE SEGMENTED NEUTROPHIL reported for this compound CC(C)(S)[C@@H](N)C(=O)O [PENICILLAMINE] : 762.83

meta.source: ChEMBL document CHEMBL3885881
